Provenance of the data: PubChem BioAssay AID2060886

Exercise: for every item that follows, state its recorded viability, T/C.
Tested on: 653999-131-R-J2-PDC complex spheroids, growth inhibition;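 note: spheroids exposed to the agents for seven days before the readout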
assay_notes: Anticancer human tumor 653999-131-R-J2-PDC patient-derived lung adenocarcinoma cell line growth inhibition [RAS]
test_settings: second compound 0.316 µM; first compound 0.1 µM; active compounds read low
Numbers only, in %.

Reference set (8 entries):
compound	metric	unit_name	reported_result
CC1(O)CCCC1n1c(=O)c(C(F)F)cc2cnc(NC3CCN(S(C)(=O)=O)CC3)nc21 (stereo not given) + C=CC(=O)N1CCN(c2nc(OCC3CCCN3C)nc3c(F)c(-c4nc(N)cc(C)c4C(F)(F)F)c(Cl)cc23)C(C)C1	viability, T/C	%	65.6
CCC(CC)c1cc(NC2CCC(N)C2)n2nccc2n1 (stereo not given) + C#Cc1c(F)ccc2cc(O)cc(-c3ncc4c(N5CC6CCC(C5)N6)nc(OCC56CCCN5CC(F)C6)nc4c3F)c12	viability, T/C	%	75.5
CC(C)NCC(C(=O)N1CCN(c2ncnc3c2C(C)CC3O)CC1)c1ccc(Cl)cc1 (stereo not given) + C=CC(=O)N1CCN(c2nc(OCC3CCCN3C)nc3c(F)c(-c4nc(N)cc(C)c4C(F)(F)F)c(Cl)cc23)C(C)C1	viability, T/C	%	95.9
CC(Nc1ccc2c(c1)OCCn1cc(N3C(=O)OCC3C(F)F)nc1-2)C(N)=O (stereo not given) + C#Cc1c(F)ccc2cc(O)cc(-c3ncc4c(N5CC6CCC(C5)N6)nc(OCC56CCCN5CC(F)C6)nc4c3F)c12	viability, T/C	%	51.2
CC(=O)OC12COC1CC(O)C1(C)C(=O)C(O)C3=C(C)C(OC(=O)C(O)C(NC(=O)OC(C)(C)C)c4ccccc4)CC(O)(C(OC(=O)c4ccccc4)C21)C3(C)C (stereo not given) + C#Cc1c(F)ccc2cc(O)cc(-c3ncc4c(N5CC6CCC(C5)N6)nc(OCC56CCCN5CC(F)C6)nc4c3F)c12	viability, T/C	%	41.3
Cc1nc(N2CCC3(CC2)COC(C)C3N)c(CO)nc1Sc1ccnc(N)c1Cl (stereo not given) + C#Cc1c(F)ccc2cc(O)cc(-c3ncc4c(N5CC6CCC(C5)N6)nc(OCC56CCCN5CC(F)C6)nc4c3F)c12	viability, T/C	%	52.6
CCN1CCN(Cc2ccc(Nc3ncc(F)c(-c4cc(F)c5nc(C)n(C(C)C)c5c4)n3)nc2)CC1 + C#Cc1c(F)ccc2cc(O)cc(-c3ncc4c(N5CC6CCC(C5)N6)nc(OCC56CCCN5CC(F)C6)nc4c3F)c12	viability, T/C	%	49.3
Nc1ccn(C2OC(CO)C(O)C2(F)F)c(=O)n1 (stereo not given) + C#Cc1c(F)ccc2cc(O)cc(-c3ncc4c(N5CC6CCC(C5)N6)nc(OCC56CCCN5CC(F)C6)nc4c3F)c12	viability, T/C	%	32.1

For each entry beneath this line, provide reported viability, T/C.
1. O=C(c1ccc(F)c(F)c1Nc1ccc(I)cc1F)N1CC(O)([C@@H]2CCCCN2)C1 + C#Cc1c(F)ccc2cc(O)cc(-c3ncc4c(N5CC6CCC(C5)N6)nc(OCC56CCCN5CC(F)C6)nc4c3F)c12
2. CC(C)n1nc(-c2ccc3oc(N)nc3c2)c2c(N)ncnc21 + C=CC(=O)N1CCN(c2nc(OCC3CCCN3C)nc3c(F)c(-c4nc(N)cc(C)c4C(F)(F)F)c(Cl)cc23)C(C)C1

Resp:
[49.9, 27.8]
